Assay: recombinant barcode read abundance after kanamycin selection (control-corrected) (log10(CPM+1)); higher = more efficient recombination; sequences stand for … in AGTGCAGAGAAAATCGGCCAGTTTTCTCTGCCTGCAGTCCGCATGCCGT…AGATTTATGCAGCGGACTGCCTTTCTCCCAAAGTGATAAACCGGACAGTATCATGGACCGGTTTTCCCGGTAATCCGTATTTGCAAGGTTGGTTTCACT; site = the 11-nt target
reportedEndpoint: recombinant barcode read abundance (log10)

residues="ATTAACCCTTGGGTTCTAACCTGTTGCCT (site ACTAACCCTAG)" result=0.0136
residues="GACACGCCTTGGGTTCTAACCTGTTGCCT (site GACACGCCTAT)" result=0.146
residues="ATCTTACCTTGGGTTCTAACCTGTTGCCT (site ATCTTAGCTAG)" result=0.0332
residues="CAAACTACTTGGGTTCTAACCTGTTGCAC (site CAAACTACTGT)" result=0.556
residues="AAGCAATCTTGGGTTCTAACCTGTTGCCT (site AAGCAGTCTAG)" result=0.0406
residues="CATCCTCCTTGGGTTCTAACCTGTTGCTG (site CATCCTCCTCA)" result=0.666
residues="TAGTCCACTTGGGTTCTAACCTGTTGCTA (site AAGTCCACTAA)" result=0.239
residues="TATTCTACTTGGGTTCTAACCTGTTGCGA (site TATTCTACTGC)" result=0.165
residues="AATACCTCTTGGGTTCTAACCTGTTGCCT (site ATTACCTCTAG)" result=0.0243
residues="TCGAACCCTTGGGTTCTAACCTGTTGCGA (site TCGAACCCTTC)" result=0.927

* * *

Assay: recombinant UMI read abundance after kanamycin selection (control-corrected) (log10(CPM+1)); higher = more efficient recombination; extreme values may be limits of the assay; sequences stand for … in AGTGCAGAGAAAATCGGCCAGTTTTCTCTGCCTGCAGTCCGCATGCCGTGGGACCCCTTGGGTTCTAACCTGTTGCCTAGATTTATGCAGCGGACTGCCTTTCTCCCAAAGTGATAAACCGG…AGGTTGGTTTCACT; site = the 11-nt donor
Label rule, in plain words: recombinant UMI read abundance (log10) of 0.02 and up is Condition met, under 0.02 is Condition not met.

residues="CGAGGACCATGGACCGGTTTTCCCGGTAATCCGTATTTGGA (site CGAGGACCTTC)" qualitativelabel="Condition not met"
residues="CGAACGACATGGACCGGTTTTCCCGGTAATCCGTATTTGTT (site CGACCGACTAA)" qualitativelabel="Condition not met"
residues="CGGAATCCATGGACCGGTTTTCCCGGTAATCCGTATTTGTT (site CGGTATACTAA)" qualitativelabel="Condition not met"
residues="TGCCACCCATGGACCGGTTTTCCCGGTAATCCGTATTTGTT (site CGCCACCCTAA)" qualitativelabel="Condition not met"
residues="ATTTATACATGGACCGGTTTTCCCGGTAATCCGTATTTGAC (site ATATATACTGT)" qualitativelabel="Condition met"
residues="ACCACCGCATGGACCGGTTTTCCCGGTAATCCGTATTTGCG (site TCCACCGCTCG)" qualitativelabel="Condition not met"
residues="GCCCGTTCATGGACCGGTTTTCCCGGTAATCCGTATTTGAG (site GCCCGTTCTCT)" qualitativelabel="Condition met"
residues="TGGCCGGCATGGACCGGTTTTCCCGGTAATCCGTATTTGGT (site TGGCCGGCTGC)" qualitativelabel="Condition not met"
residues="CTGGGCACATGGACCGGTTTTCCCGGTAATCCGTATTTGAG (site CTGGGCACTCT)" qualitativelabel="Condition met"
residues="ATAGTAGCATGGACCGGTTTTCCCGGTAATCCGTATTTGCA (site ACAGTATCTTG)" qualitativelabel="Condition met"
residues="CCCCTCACATGGACCGGTTTTCCCGGTAATCCGTATTTGTA (site CCCCACACTTA)" qualitativelabel="Condition met"
residues="GCTGCGTCATGGACCGGTTTTCCCGGTAATCCGTATTTGGT (site GCTGCGTCTAC)" qualitativelabel="Condition met"
residues="ACCTAGACATGGACCGGTTTTCCCGGTAATCCGTATTTGGC (site ACCTAGACTGC)" qualitativelabel="Condition met"
residues="TAATTGGCATGGACCGGTTTTCCCGGTAATCCGTATTTGTG (site TAGTTGGCTCA)" qualitativelabel="Condition not met"
residues="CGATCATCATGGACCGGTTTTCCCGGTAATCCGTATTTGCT (site CGATTTTCTAG)" qualitativelabel="Condition not met"
residues="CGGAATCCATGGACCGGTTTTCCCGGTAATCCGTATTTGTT (site CGGGAACCTAA)" qualitativelabel="Condition not met"
residues="AATGCGTCATGGACCGGTTTTCCCGGTAATCCGTATTTGAC (site AATGGGTCTGT)" qualitativelabel="Condition not met"
residues="TAGCCGGCATGGACCGGTTTTCCCGGTAATCCGTATTTGTA (site TAGCCGGCTTA)" qualitativelabel="Condition met"
residues="CCCGACCCATGGACCGGTTTTCCCGGTAATCCGTATTTGAG (site CCCGACCCTCT)" qualitativelabel="Condition not met"
residues="CGTTCATCATGGACCGGTTTTCCCGGTAATCCGTATTTGAT (site CGTTCATCTAT)" qualitativelabel="Condition not met"
residues="CCAGGTTCATGGACCGGTTTTCCCGGTAATCCGTATTTGAT (site CCAGGTCCTAT)" qualitativelabel="Condition not met"
residues="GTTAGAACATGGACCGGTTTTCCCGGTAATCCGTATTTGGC (site GATAGAACTGC)" qualitativelabel="Condition not met"
residues="AGATCATCATGGACCGGTTTTCCCGGTAATCCGTATTTGTT (site AGATCATCTAA)" qualitativelabel="Condition met"
residues="AGGAAAACATGGACCGGTTTTCCCGGTAATCCGTATTTGCG (site AGGAAGACTTG)" qualitativelabel="Condition not met"
residues="AGGAAGCCATGGACCGGTTTTCCCGGTAATCCGTATTTGCA (site AGGAAGACTTG)" qualitativelabel="Condition not met"
residues="CCTTATACATGGACCGGTTTTCCCGGTAATCCGTATTTGAG (site CCTTATACTCT)" qualitativelabel="Condition met"
residues="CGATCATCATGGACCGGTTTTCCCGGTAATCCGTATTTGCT (site CGATGGTCTAG)" qualitativelabel="Condition not met"
residues="CCGAGCTCATGGACCGGTTTTCCCGGTAATCCGTATTTGTA (site CCGAGCTCTTA)" qualitativelabel="Condition met"
residues="AGAAGGCCATGGACCGGTTTTCCCGGTAATCCGTATTTGAC (site AGAAGGCCTGT)" qualitativelabel="Condition not met"
residues="GCGTTAGCATGGACCGGTTTTCCCGGTAATCCGTATTTGTG (site GCGTTAGCTCA)" qualitativelabel="Condition met"
residues="GCAGCGTCATGGACCGGTTTTCCCGGTAATCCGTATTTGGA (site GCAGCGTCTTC)" qualitativelabel="Condition met"
residues="CGGTACCCATGGACCGGTTTTCCCGGTAATCCGTATTTGGT (site CGGTACCCTAC)" qualitativelabel="Condition not met"
residues="GCCCACACATGGACCGGTTTTCCCGGTAATCCGTATTTGTA (site GCCCACACTTA)" qualitativelabel="Condition met"
residues="ACCCAGACATGGACCGGTTTTCCCGGTAATCCGTATTTGGG (site ACCGAGACTCC)" qualitativelabel="Condition not met"
residues="CCTAAAGCATGGACCGGTTTTCCCGGTAATCCGTATTTGAG (site CCTAAAGCTGT)" qualitativelabel="Condition not met"
residues="TGGTCGGCATGGACCGGTTTTCCCGGTAATCCGTATTTGGC (site TGGTCGGCTGC)" qualitativelabel="Condition met"
